# procedure.details: Plasma concentration in db/db mouse at 1 mg/kg, iv after 240 mins
# Format: ADME, organism-based
# Parameters: dose 1 mg/kg, route intravenous
# setup.conditions: read-out: Drug uptake
assay.endpoint: concentration at 4 h (ng/mL)
Express it in ng/mL; write the number only.

[ask] For the compound shown here, `CN(Cc1ccc(C(=O)O)cc1)c1ccc(OCc2c(-c3c(Cl)cccc3Cl)noc2C2CC2)nc1C(F)(F)F` , give the reported concentration at 4 h.
[reply] 94

[ask] For the compound shown here, `CN(Cc1ccc(C(=O)NCCS(=O)(=O)O)cc1)c1ccc(OCc2c(-c3c(Cl)cccc3Cl)noc2C2CC2)nc1C(F)(F)F` , give the reported concentration at 4 h.
[reply] 8

====

# procedure.details: Plasma concentration in db/db mouse at 1 mg/kg, iv after 30 mins
# Type: ADME, organism-based
# Design: dose 1 mg/kg, route intravenous
# setup.conditions: read-out: Drug uptake
assay.endpoint: concentration at 0.5 h (ng/mL)
Express it in ng/mL; write the number only.

[ask] For the compound shown here, `CC(C)c1onc(-c2c(Cl)cccc2Cl)c1COc1ccc(N(C)Cc2ccc(C(=O)O)cc2)c(C(F)(F)F)n1` , give the reported concentration at 0.5 h.
[reply] 361

[ask] For the compound shown here, `CN(Cc1ccc(C(=O)O)cc1)c1ccc(OCc2c(-c3c(Cl)cccc3Cl)noc2C2CC2)nc1C(F)(F)F` , give the reported concentration at 0.5 h.
[reply] 325

[ask] For the compound shown here, `CN(Cc1ccc(C(=O)NCCS(=O)(=O)O)cc1)c1ccc(OCc2c(-c3c(Cl)cccc3Cl)noc2C2CC2)nc1C(F)(F)F` , give the reported concentration at 0.5 h.
[reply] 3

====

# measured.target: UniProt:Q14994
# Sequence (Q14994 whole entry, the tested form may be a part): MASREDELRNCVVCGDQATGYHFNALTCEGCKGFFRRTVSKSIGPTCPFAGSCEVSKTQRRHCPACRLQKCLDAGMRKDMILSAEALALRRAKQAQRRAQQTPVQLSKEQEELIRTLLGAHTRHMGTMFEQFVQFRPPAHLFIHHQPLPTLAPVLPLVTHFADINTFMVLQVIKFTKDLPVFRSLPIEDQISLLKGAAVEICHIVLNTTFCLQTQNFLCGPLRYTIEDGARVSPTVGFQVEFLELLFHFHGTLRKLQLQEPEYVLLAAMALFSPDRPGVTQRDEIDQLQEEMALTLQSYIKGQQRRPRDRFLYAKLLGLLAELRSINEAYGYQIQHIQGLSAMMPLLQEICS
# procedure.details: Agonist activity at CAR-LBD expressed in HEK293 cells assessed as Gal4-DBD interaction by cellular mammalian one hybrid assay
Would you kindly list EC50 for each of these compounds?

[ask] For the compound shown here, `CN(Cc1ccc(C(=O)O)cc1)c1ccc(OCc2c(-c3c(Cl)cccc3Cl)noc2C2CC2)nc1C(F)(F)F` , give the reported EC50.
[reply] > 10 µM

[ask] For the compound shown here, `CN(Cc1cccc(C(=O)O)c1)c1ccc(OCc2c(-c3c(Cl)cccc3Cl)noc2C2CC2)nc1C(F)(F)F` , give the reported EC50.
[reply] > 10 µM

[ask] For the compound shown here, `CC(C)c1onc(-c2c(Cl)cccc2Cl)c1COc1ccc(N(C)Cc2ccc(C(=O)O)cc2)c(C(F)(F)F)n1` , give the reported EC50.
[reply] > 10 µM

====

# measured.target: Bile acid receptor (Homo sapiens)
# procedure.details: Agonist activity at human […] FXR LBD expressed in HEK293 cells coexpressing GAL4-DNA bindig domain and pFRluc by mammalian one-hybrid assay relative to GW-4064
# Type: functional, cell-based
Would you kindly list Efficacy for each of these compounds?
Express it in %; write the number only.

[ask] For the compound shown here, `CC(C)c1onc(-c2c(Cl)cccc2Cl)c1COc1ccc(N(C)Cc2cccc(C(=O)O)c2)c(C(F)(F)F)n1` , give the reported Efficacy.
[reply] 89

[ask] For the compound shown here, `CC(C)c1onc(-c2c(Cl)cccc2Cl)c1COc1ccc(N(C)C(=O)c2cccc(C(=O)O)c2)c(C(F)(F)F)n1` , give the reported Efficacy.
[reply] 35

[ask] For the compound shown here, `CC(C)c1onc(-c2c(Cl)cccc2Cl)c1COc1ccc(/C=C/c2cccc(C(=O)O)c2)c(Cl)c1` , give the reported Efficacy.
[reply] 100

[ask] For the compound shown here, `CC(C)c1onc(-c2c(Cl)cccc2Cl)c1COc1cnc(N(C)Cc2ccc(C(=O)O)cc2)c(Cl)c1` , give the reported Efficacy.
[reply] 70
